Target: PTP1B (Homo sapiens)
Sequence (P18031 whole entry): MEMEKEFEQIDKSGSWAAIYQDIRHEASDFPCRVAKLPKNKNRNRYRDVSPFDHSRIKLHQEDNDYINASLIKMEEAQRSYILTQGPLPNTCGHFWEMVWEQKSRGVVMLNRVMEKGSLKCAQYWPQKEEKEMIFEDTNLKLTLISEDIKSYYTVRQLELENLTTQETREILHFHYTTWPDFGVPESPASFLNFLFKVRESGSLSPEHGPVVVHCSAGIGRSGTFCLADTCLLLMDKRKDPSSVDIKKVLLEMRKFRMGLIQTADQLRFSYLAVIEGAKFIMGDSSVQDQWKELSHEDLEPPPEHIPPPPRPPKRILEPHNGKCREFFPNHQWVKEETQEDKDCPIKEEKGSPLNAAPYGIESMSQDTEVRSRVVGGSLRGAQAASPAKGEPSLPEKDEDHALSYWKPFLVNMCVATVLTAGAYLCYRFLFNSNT
Assay: PTP1B inhibition assay (pNPP substrate)
Settings: human recombinant PTP1B, 37 °C, 30 min, triplicate, means ± SD, read-out: PTP1B inhibitory activity IC50
pIC50: −log10 of the molar value.
measurementLabel: pIC50

(A) C=C1CC[C@]2(C(=O)O)CC[C@]3(C)C(=CC[C@@H]4[C@@]5(C)C[C@@H](O)[C@@H](OC(=O)/C=C/c6ccc(O)cc6)C(C)(C)[C@@H]5CC[C@]43C)[C@@H]2[C@H]1C
(B) C=C1CC[C@]2(C(=O)O)CC[C@]3(C)C(=CC[C@@H]4[C@@]5(C)C[C@@H](O)[C@@H](OC(=O)/C=C/c6ccc(O)c(OC)c6)C(C)(C)[C@@H]5CC[C@]43C)[C@@H]2[C@H]1C
(C) COc1cc(/C=C/C(=O)O[C@H]2[C@H](O)C[C@]3(C)[C@H]4CC=C5[C@@H]6[C@@H](C)[C@H](C)CC[C@]6(C(=O)O)CC[C@@]5(C)[C@]4(C)CC[C@H]3C2(C)C)ccc1O
Ranking by pIC50 (descending) is requested for the entries above. Give the labels in the order specified.
C, A, B
(C: 4.99, A: 4.77, B: 4.47)
